# Test system: OVCAR-4
# assay protocol: NCI SRB assay
# Assay type: cell-based, human
# experimental conditions: OVCAR-4, 5-dose; read-out: LC50 (the source's name)
quantity: CC50

Return CC50 for the following compound: Cc1ccc(-c2nc(Nc3ccccc3C(=O)O)c3ccccc3n2)cc1 [6b] < 100 µM

###

# experimental target: hCA IX (Homo sapiens)
# Construct: made in house
# assay protocol: stopped flow CO2 hydrase assay
# Assay type: biochemical
# experimental conditions: KI hCA II / KI hCA IX
# Protocol: Carbonic anhydrase inhibition assay The carbonic anhydrase catalyzed CO2 hydration actions for the quinazoline-based […] Photophysics stopped-flow, as described previously. The enzymes are recombinant proteins prepared in our lab. Phenol red (at a concentration of 0.2 mM) has been used as indicator, working at the absorbance maximum of 557 nm, with 20 mM Hepes (pH 7.5) as buffer, and 20 mM Na2SO4 (for maintaining constant the ionic strength), following the initial rates of the CA- […]
Mark class 0 for Selectivity ratio II/IX values under 2, and class 1 for everything at or above.

Here are 3 compounds together with their reported answers.
compound	assigned label
Cc1cccc(-c2nc(Nc3ccc(C(=O)O)cc3)c3ccccc3n2)c1 [8a]	class 1
Cc1ccc(-c2nc(Nc3ccc(C(=O)O)cc3)c3ccccc3n2)cc1 [8b]	class 1
COc1ccc(-c2nc(Nc3ccccc3C(=O)O)c3ccccc3n2)cc1 [6c]	class 0

Evaluate Cc1cccc(-c2nc(Nc3cccc(C(=O)O)c3)c3ccccc3n2)c1 [7a] : Selectivity ratio II/IX at minimum 2? class 0

###

# Tested on: HOP-62
# assay protocol: NCI SRB assay
# Assay type: cell-based, human
# experimental conditions: HOP-62, 5-dose
quantity: LC50

Consider the compound Cc1ccc(-c2nc(Nc3ccccc3C(=O)O)c3ccccc3n2)cc1 [6b] and give its recorded LC50. < 100 µM

###

# Tested on: PC-3
# assay protocol: NCI SRB assay
# Assay type: cell-based, human
# experimental conditions: PC-3, 5-dose; read-out: LC50 (the source's name)
quantity: CC50

Entry Cc1ccc(-c2nc(Nc3ccccc3C(=O)O)c3ccccc3n2)cc1 needs its CC50 filled in; supply it. < 100 µM

###

# System: MDA-MB-468
# assay protocol: NCI SRB assay
# Type: cell-based, human
# experimental conditions: MDA-MB-468, 1.00E-5 Molar
quantity: Growth Percent (%)
Numbers only, in %.

# example entries with known answers
chemical structure	Growth Percent [%]
Cc1cccc(-c2nc(Nc3ccccc3C(=O)O)c3ccccc3n2)c1	-15.06
COc1ccc(-c2nc(Nc3ccccc3C(=O)O)c3ccccc3n2)cc1	42.97
Cc1ccc(-c2nc(Nc3ccccc3C(=O)O)c3ccccc3n2)cc1	-26.88
Cc1ccc(-c2nc(Nc3cccc(C(=O)O)c3)c3ccccc3n2)cc1	116.40
Cc1cccc(-c2nc(Nc3ccc(C(=O)O)cc3)c3ccccc3n2)c1	113.23

Please indicate recorded Growth Percent of Cc1ccc(-c2nc(Nc3ccc(C(=O)O)cc3)c3ccccc3n2)cc1 measured with MDA-MB-468. 108.74

###

# System: HOP-92
# assay protocol: NCI SRB assay
# Type: cell-based, human
# experimental conditions: HOP-92, 10 μM
quantity: GI% (%)
Give bare numbers, in %.

For each of the items listed, what is its GI%?
1. Cc1ccc(-c2nc(Nc3ccccc3C(=O)O)c3ccccc3n2)cc1
2. Cc1ccc(-c2nc(Nc3ccc(C(=O)O)cc3)c3ccccc3n2)cc1
3. Cc1cccc(-c2nc(Nc3ccccc3C(=O)O)c3ccccc3n2)c1
4. Cc1cccc(-c2nc(Nc3ccc(C(=O)O)cc3)c3ccccc3n2)c1
5. Cc1ccc(-c2nc(Nc3cccc(C(=O)O)c3)c3ccccc3n2)cc1
6. COc1ccc(-c2nc(Nc3ccccc3C(=O)O)c3ccccc3n2)cc1

1: 120; 2: 25; 3: 105; 4: 29; 5: 29; 6: 78

// provenance: paper PMC10035947
